biological target: MC4-R (Homo sapiens, UniProt P32245); construct: expressed in transfected cells; host or cells: HEK-293; experiment: Competitive binding assay: inhibition of 125I-NDP-α-MSH binding to HEK-293 membranes with cloned human receptor subtype 4; details: Table 6; 1 μM; mean of triplicate
Sequence (P32245 whole entry): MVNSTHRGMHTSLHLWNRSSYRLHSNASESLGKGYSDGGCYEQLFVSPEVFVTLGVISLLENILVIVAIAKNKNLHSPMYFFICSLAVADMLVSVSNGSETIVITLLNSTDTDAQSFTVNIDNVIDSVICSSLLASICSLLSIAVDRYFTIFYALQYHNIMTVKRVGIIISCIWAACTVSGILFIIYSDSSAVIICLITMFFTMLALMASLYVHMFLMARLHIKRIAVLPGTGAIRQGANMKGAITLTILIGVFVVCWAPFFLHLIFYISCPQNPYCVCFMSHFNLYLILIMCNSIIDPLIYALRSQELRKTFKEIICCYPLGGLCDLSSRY
Non-standard residues stand in square brackets, D forms with d. No end group written: not given here. 1Nal = N[C@@H](Cc1cccc2ccccc12)C(=O)O; d(pGlu) = O=C1CC[C@H](C(=O)O)N1; code Z = not defined here; Nle = CCCC[C@H](N)C(=O)O
Overview of reported % Inhibition of Binding hMC4-R across a group of substances:
Provide a numeric answer, followed by its unit.

Documented % Inhibition of Binding hMC4-R of Pro-D-Phe-Arg-Trp-Cys-NH2 (P[dF]RWC-NH2; also: metal complex) : 14%

Summary for this substance, Ac-Nle-Ala-Glu-D-Phe-Arg-Cys-Trp-NH2 (Ac-[Nle]AE[dF]RCW-NH2; not fully specified; printed as Ac-Nle-Ala-Glu-D-Phe-Arg-Cys-Trp-NH2) : % Inhibition of Binding hMC4-R is 12%

The reported value for Amc-D-Phe-Arg-Cys-Trp-NH2 in terms of % Inhibition of Binding hMC4-R is 4%

Per the record, Aic-D-Phe-Arg-Cys-Trp-NH2 has % Inhibition of Binding hMC4-R of 21%

For this substance ( Tic-D-Phe(2′-Cl)-Arg-Trp-Cys-NH2 ), measured % Inhibition of Binding hMC4-R is 69%

Record D-Nal 1′-D-Phe-Arg-Trp-Cys-NH2 , field % Inhibition of Binding hMC4-R: 13%

The substance D-Tiq-D-Phe-Arg-Cys-Trp-NH2 showed % Inhibition of Binding hMC4-R equal to 13%

Recorded result, Nal 1′-D-Phe-Arg-Cys-Trp-NH2 ([1Nal][dF]RCW-NH2; also: metal complex) , % Inhibition of Binding hMC4-R: 12%

Lab note: measured % Inhibition of Binding hMC4-R of Z-D-Pyr-D-Phe-Arg-Trp-Cys-NH2 ({code Z}-[d(pGlu)][dF]RWC-NH2; reading uncertain; also: metal complex, printed as Z-D-Pyr-D-Phe-Arg-Trp-Cys-NH2) was 46%

---

molecular target: MC1-R (Mus musculus); construct: MC1-R membranes were isolated from B16—F10 mouse melanoma cells; endogenous in cells; host or cells: B16-F10 mouse melanoma cells; assay: Competitive binding assay: inhibition of 125I-NDP-α-MSH binding to membranes from B16-F10 mouse melanoma cells; conditions: Table 1; 1 μM Re-complexed peptide
Non-standard residues stand in square brackets, D forms with d. Nle = CCCC[C@H](N)C(=O)O
endpoint: % Inhibition of Binding MC1-R

Some solved cases for reference:
>>> reported("Heptanoyl-Ser(Bzl)-D-Nal 2′-Arg-Trp-Cys-NH2")
"19%"
>>> reported("D-(N-Bzl)Nal 2′-Arg-Trp-Cys-NH2")
"34%"
>>> reported("Ac-Nle-Ala-His-D-Phe-Arg-Trp-Cys-NH2 ({Ac-Nle-Ala-H2N}-[dF]RWC-NH2; also: ReO complex)")
"91%"

Turning now to a further substance:
Item: Ac-Nle-Ala-His-D-Phe(3′-Cl)-Arg-Trp-Cys-Trp-NH2 | System: MC1-R (Mus musculus) | % Inhibition of Binding MC1-R: 101%

---

molecular target: MC1-R (Mus musculus, UniProt Q01727); construct: MC1-R membranes were isolated from B16—F10 mouse melanoma cells; endogenous in cells; host or cells: B16-F10 mouse melanoma cells; experiment: Competitive binding assay: inhibition of 125I-NDP-α-MSH binding to membranes from B16-F10 mouse melanoma cells; settings: Table 6; 1 μM; mean of triplicate
Sequence (Q01727 whole entry): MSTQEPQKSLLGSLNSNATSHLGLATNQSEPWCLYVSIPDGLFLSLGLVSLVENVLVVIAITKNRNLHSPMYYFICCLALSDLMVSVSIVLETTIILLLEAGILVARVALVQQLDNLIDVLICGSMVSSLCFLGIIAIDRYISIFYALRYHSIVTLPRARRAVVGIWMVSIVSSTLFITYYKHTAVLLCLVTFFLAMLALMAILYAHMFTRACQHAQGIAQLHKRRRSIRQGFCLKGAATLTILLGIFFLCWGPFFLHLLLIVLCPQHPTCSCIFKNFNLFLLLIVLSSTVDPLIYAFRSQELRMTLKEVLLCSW
Non-standard residues stand in square brackets, D forms with d. No end group written: not given here. 1Nal = N[C@@H](Cc1cccc2ccccc12)C(=O)O; Nle = CCCC[C@H](N)C(=O)O
Item-by-item account of % Inhibition of Binding MC1-R
Entry rule: numbers only, all in %.

>>> reported("Ac-Nle-Ala-D-Tyr-D-Phe-Arg-Cys-Trp-NH2 (Ac-[Nle]A[dY][dF]RCW-NH2; not fully specified; printed as Ac-Nle-Ala-D-Tyr-D-Phe-Arg-Cys-Trp-NH2)")
15
>>> reported("Heptanoyl-Ser(Bzl)-D-Nal 2′-Arg-Trp-Cys-Lys-NH2")
72
>>> reported("D-Nal 2′-D-Phe-Arg-Trp-Cys-NH2")
11
>>> reported("Heptanoyl-Ser(Bzl)-D-Phe(4′-Cl)-Arg-Bip-Cys-NH2")
65
>>> reported("Ac-Nle-Arg-Ala-D-Nal 2′-Cys-Lys-NH2")
23
>>> reported("Nal 1′-D-Phe-Arg-Trp-Cys-NH2 ([1Nal][dF]RWC-NH2; also: metal complex)")
11
>>> reported("Ac-Nle-Arg-Arg-D-Nal 2′-Cys-Lys-NH2")
100

Measured % Inhibition of Binding MC1-R of Ac-Nle-Ala-Glu-D-Phe-Arg-Cys-Trp-NH2 (Ac-[Nle]AE[dF]RCW-NH2; not fully specified; printed as Ac-Nle-Ala-Glu-D-Phe-Arg-Cys-Trp-NH2) : 0

---

molecular target: MC1-R (Mus musculus); construct: MC1-R membranes were isolated from B16—F10 mouse melanoma cells; endogenous in cells; host or cells: B16-F10 mouse melanoma cells; experiment: Competitive binding assay: inhibition of 125I-NDP-α-MSH binding to membranes from B16-F10 mouse melanoma cells; details: Table 6; 1 μM; mean of triplicate
Non-standard residues stand in square brackets, D forms with d. No end group written: not given here. *: point of attachment. Acetyl(2-naphthyl) = O=C(Cc1ccc2ccccc2c1)*; dIgl = N[C@@H](C(=O)O)C1Cc2ccccc2C1; Ac6c = NC1(C(=O)O)CCCCC1; Nle = CCCC[C@H](N)C(=O)O; Ac5c = NC1(C(=O)O)CCCC1; Ahp = NCCCCCCC(=O)O
Short version: % Inhibition of Binding MC1-R at least 40% is yes, less is no.

Consider the following illustrative entries.
>>> label_class("1-amino-1-cyclopentane carboxyl-D-Phe-Arg-Trp-Cys-NH2 ([Ac5c][dF]RWC-NH2; N-terminus assumed; SMILES N=C(N)NCCC[C@H](NC(=O)[C@@H](Cc1ccccc1)NC(=O)C1(N)CCCC1)C(=O)N[C@@H](Cc1c[nH]c2ccccc12)C(=O)N[C@@H](CS)C(N)=O)")
"no"
>>> label_class("Naphthlyl-2-acetyl-D-Phe-Arg-Cys-Trp-NH2 ({Acetyl(2-naphthyl)}-[dF]RCW-NH2; also: metal complex)")
"no"
>>> label_class("4′-Aminomethyl-Phenylacetyl Arg-Arg-Ala-D-Phe(4′-Cl)-Cys-Trp-NH2")
"yes"

Query: In plain terms: is recorded % Inhibition of Binding MC1-R at least 40% for 7-amino-Heptanoyl-D-Igl-D-Phe-Arg-Trp-Cys-NH2 ([Ahp][dIgl][dF]RWC-NH2; not fully specified; printed as 7-amino-Heptanoyl-D-Igl-D-Phe-Arg-Trp-Cys-NH2) ?
Reply: yes

Query: Quick check: does 1-amino-1-cyclohexane carboxyl-D-Phe-Arg-Cys-Trp-NH2 ([Ac6c][dF]RCW-NH2; N-terminus assumed; SMILES N=C(N)NCCC[C@H](NC(=O)[C@@H](Cc1ccccc1)NC(=O)C1(N)CCCCC1)C(=O)N[C@@H](CS)C(=O)N[C@@H](Cc1c[nH]c2ccccc12)C(N)=O) have % Inhibition of Binding MC1-R greater than or equal to 40%?
Reply: yes

Query: % Inhibition of Binding MC1-R >= 40% for Ac-Nle-Ala-Arg-D-Phe-Arg-Cys-Trp-NH2 (Ac-[Nle]AR[dF]RCW-NH2; not fully specified; printed as Ac-Nle-Ala-Arg-D-Phe-Arg-Cys-Trp-NH2) ?
Reply: yes

Query: Kindly determine if % Inhibition of Binding MC1-R recorded for Idc-D-Phe-Arg-Trp-Cys-NH2 is above or exactly 40%.
Reply: no

---

target: MC4-R (Homo sapiens, UniProt P32245); construct: expressed in transfected cells; host or cells: HEK-293; test: Competitive binding assay: inhibition of 125I-NDP-α-MSH binding to HEK-293 membranes with cloned human receptor subtype 4; conditions: Table 6; 1 μM; mean of triplicate
Non-standard residues stand in square brackets, D forms with d. No end group written: not given here. Nle = CCCC[C@H](N)C(=O)O
endpoint: % Inhibition of Binding hMC4-R (%)
Kindly answer with a numeric value in %, unit omitted.

Reference set, count: 4
>>> reported("Ac-Nle-Arg-Arg-D-Nal 2′-Cys-Lys-NH2")
96
>>> reported("Ac-Nle-Ala-Ala-D-Phe-Arg-Cys-Trp-NH2 (Ac-[Nle]AA[dF]RCW-NH2; not fully specified; printed as Ac-Nle-Ala-Ala-D-Phe-Arg-Cys-Trp-NH2)")
12
>>> reported("Phe-Arg-Trp-Cys-Lys-NH2 (FRWCK-NH2; not fully specified; printed as Phe-Arg-Trp-Cys-Lys-NH2)")
64
>>> reported("D-Tiq-D-Phe-Arg-Trp-Cys-NH2")
34

Entry under test: Ac-Nle-Ala-His-D-Phe-Arg-D-Nal 2′-Cys-NH2 . Its % Inhibition of Binding hMC4-R was 90

get_value(item= D-Nal 2′-D-Phe-Arg-Trp-Cys-NH2 , readout=% Inhibition of Binding hMC4-R) returns 5
